pKd: −log10 of the molar value.
Here's a batch of substances along with measured pKd for Replication protein A 70 kDa DNA-binding subunit (Homo sapiens).

Substance	pKd
Ac-DFTANDLEEWFALAS-NH2	4.72
Ac-DFTADDLEELFTLAS-NH2	4.66
Ac-DFTADDLEEWDTLAS-NH2	3.86
Ac-DFTADDLAELDALAS-NH2	4.70
Ac-DFTAADLEELDTLAS-NH2	4.51
Ac-DFTADDLEALDTLAS-NH2	3.78
Ac-DFTADDLEELATLAS-NH2	4.07
Ac-DFTADDLAEWFTLAS-NH2	4.37
Ac-DFTADDAEELDTLAS-NH2	3.76
Ac-DFTADDLEQWFALAS-NH2	5.59
Ac-DFTADALEEWFALAS-NH2	4.55
Ac-DFTADDLEELDALAS-NH2	4.77
Ac-DFTADDLEELDTLAA-NH2	4.59
Ac-DFTADDLEELDTAAS-NH2	4.20
Ac-NFTADDLEEWFALAS-NH2	5.24
Ac-DFTADDLEEWFTLAS-NH2	5.57
Ac-DFTADDLEEADTLAS-NH2	3.71
Ac-DFTADNLEEWFALAS-NH2	5.16
Ac-AFTADDLEELDTLAS-NH2	3.82
Ac-DFTADALEELDTLAS-NH2	3.65
Ac-DFTADDLEAWFALAS-NH2	5.62
Ac-DFAADDLEELDTLAS-NH2	3.82
Ac-DFTADDLEEWFALAS-NH2	5.92
Ac-DFTADDLAELDTLAS-OH	4.66
Ac-DFTAADLEEWFALAS-NH2	5.64
Ac-DFTADDLAEWFALAS-NH2	4.55

====

Positions of bridges follow the written chain, without caps; N, C: chain ends. Non-standard residues stand in square brackets, D forms with d. Residues, ends and D or L forms follow the SMILES beside them. *: point of attachment. X1 = O=C(O)c1cc(NC(=S)*)ccc1-c1c2ccc(=O)cc-2oc2cc(O)ccc12; Phe(3,4-Cl2) = N[C@@H](Cc1ccc(Cl)c(Cl)c1)C(=O)O; R5 = C=CCCC[C@@](C)(N)C(=O)O
Record: Kd reported on Replication protein A 70 kDa DNA-binding subunit (Homo sapiens, UniProt P27694).
Sequence (P27694 whole entry): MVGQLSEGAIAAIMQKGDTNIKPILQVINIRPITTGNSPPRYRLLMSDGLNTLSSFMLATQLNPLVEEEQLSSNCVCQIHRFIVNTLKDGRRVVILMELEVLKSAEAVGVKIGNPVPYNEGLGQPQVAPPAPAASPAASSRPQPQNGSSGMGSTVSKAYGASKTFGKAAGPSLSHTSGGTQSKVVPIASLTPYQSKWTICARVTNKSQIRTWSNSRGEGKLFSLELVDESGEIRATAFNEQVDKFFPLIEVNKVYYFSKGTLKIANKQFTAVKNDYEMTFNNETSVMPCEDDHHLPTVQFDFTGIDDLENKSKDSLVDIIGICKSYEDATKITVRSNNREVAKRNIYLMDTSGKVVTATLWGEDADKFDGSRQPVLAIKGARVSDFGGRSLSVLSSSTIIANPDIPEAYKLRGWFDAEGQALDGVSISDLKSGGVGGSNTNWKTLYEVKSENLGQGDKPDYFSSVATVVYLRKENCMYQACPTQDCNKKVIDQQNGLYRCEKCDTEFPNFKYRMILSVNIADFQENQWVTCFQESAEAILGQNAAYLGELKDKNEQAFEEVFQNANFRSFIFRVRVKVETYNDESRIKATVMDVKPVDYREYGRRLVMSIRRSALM
Value Type: Kd (nM)

Compound	Value Type	Measurement
CC(C)C[C@H](NC(=O)[C@H](C)NC(=O)[C@H](Cc1ccccc1)NC(=O)[C@H](Cc1c[nH]c2ccccc12)NC(=O)[C@@]1(C)CCC/C=C\CCC[C@@](C)(NC(=O)[C@H](C)NC(=O)[C@@H](NC(=O)[C@H](Cc2ccccc2)NC(=O)[C@H](CC(N)=O)NC(=S)Nc2ccc(-c3c4ccc(=O)cc-4oc4cc(O)ccc34)c(C(=O)O)c2)[C@@H](C)O)C(=O)N[C@@H](CC(=O)O)C(=O)N[C@@H](CC(C)C)C(=O)N[C@@H](CCC(=O)O)C(=O)N1)C(=O)O (X1-NFTA[R5]DLE[R5]WFAL-OH; staple (Z) 5-9)	Kd	1500
CC(C)C[C@H](NC(=O)[C@H](C)NC(=O)[C@H](Cc1ccc(Cl)c(Cl)c1)NC(=O)[C@H](Cc1c[nH]c2ccccc12)NC(=O)[C@H](CCC(=O)O)NC(=O)[C@H](CCC(=O)O)NC(=O)[C@H](CC(C)C)NC(=O)[C@H](CC(=O)O)NC(=O)[C@H](CC(=O)O)NC(=O)[C@H](C)NC(=O)[C@@H](NC(=O)[C@H](Cc1ccccc1)NC(=O)[C@H](CC(=O)O)NC(=S)Nc1ccc(-c2c3ccc(=O)cc-3oc3cc(O)ccc23)c(C(=O)O)c1)[C@@H](C)O)C(N)=O (X1-DFTADDLEEW[Phe(3,4-Cl2)]AL-NH2)	Kd	22
CC(C)C[C@H](NC(=O)[C@H](C)NC(=O)[C@H](Cc1ccccc1)NC(=O)[C@H](Cc1c[nH]c2ccccc12)NC(=O)[C@H](C)NC(=O)[C@H](CCC(=O)O)NC(=O)[C@H](CC(C)C)NC(=O)[C@H](CC(N)=O)NC(=O)[C@H](C)NC(=O)[C@H](C)NC(=O)[C@@H](NC(=O)[C@H](Cc1ccccc1)NC(=O)[C@H](CC(N)=O)NC(=S)Nc1ccc(-c2c3ccc(=O)cc-3oc3cc(O)ccc23)c(C(=O)O)c1)[C@@H](C)O)C(=O)N[C@@H](C)C(=O)N[C@@H](CO)C(N)=O (X1-NFTAANLEAWFALAS-NH2)	Kd	21000
CC(C)C[C@H](NC(=O)[C@H](C)NC(=O)[C@H](Cc1ccccc1)NC(=O)[C@H](Cc1c[nH]c2ccccc12)NC(=O)[C@H](CCC(=O)O)NC(=O)[C@H](CCC(=O)O)NC(=O)[C@H](CC(C)C)NC(=O)[C@H](CC(=O)O)NC(=O)[C@H](CC(=O)O)NC(=O)[C@H](C)NC(=O)[C@@H](NC(=O)[C@H](Cc1ccccc1)NC(=O)[C@H](CC(=O)O)NC(=S)Nc1ccc(-c2c3ccc(=O)cc-3oc3cc(O)ccc23)c(C(=O)O)c1)[C@@H](C)O)C(=O)N[C@@H](C)C(N)=O (X1-DFTADDLEEWFALA-NH2)	Kd	580

====

Values of Kd reported for Replication protein A 70 kDa DNA-binding subunit (Homo sapiens, UniProt P27694) appear below.
Positions of bridges follow the written chain, without caps; N, C: chain ends. Non-standard residues stand in square brackets, D forms with d. Residues, ends and D or L forms follow the SMILES beside them. *: point of attachment. X1 = O=C(O)c1cc(NC(=S)*)ccc1-c1c2ccc(=O)cc-2oc2cc(O)ccc12; Phe(3,4-Cl2) = N[C@@H](Cc1ccc(Cl)c(Cl)c1)C(=O)O; R5 = C=CCCC[C@@](C)(N)C(=O)O

Compound	Kd (nM)
CC(C)C[C@H](NC(=O)[C@H](C)NC(=O)[C@H](Cc1ccccc1)NC(=O)[C@H](Cc1c[nH]c2ccccc12)NC(=O)[C@H](CCC(=O)O)NC(=O)[C@H](CCC(=O)O)NC(=O)[C@H](CC(C)C)NC(=O)[C@H](CC(=O)O)NC(=O)[C@H](CC(=O)O)NC(=O)[C@H](C)NC(=O)[C@@H](NC(=O)[C@H](Cc1ccccc1)NC(=O)[C@H](CC(=O)O)NC(=S)Nc1ccc(-c2c3ccc(=O)cc-3oc3cc(O)ccc23)c(C(=O)O)c1)[C@@H](C)O)C(N)=O (X1-DFTADDLEEWFAL-NH2)	330
CC(C)C[C@H](NC(=O)[C@H](C)NC(=O)[C@H](Cc1ccccc1)NC(=O)[C@H](Cc1c[nH]c2ccccc12)NC(=O)[C@@]1(C)CCC/C=C\CCC[C@@](C)(NC(=O)[C@H](C)NC(=O)[C@@H](NC(=O)[C@H](Cc2ccccc2)NC(=O)[C@H](CC(=O)O)NC(=S)Nc2ccc(-c3c4ccc(=O)cc-4oc4cc(O)ccc34)c(C(=O)O)c2)[C@@H](C)O)C(=O)N[C@@H](CC(=O)O)C(=O)N[C@@H](CC(C)C)C(=O)N[C@@H](CCC(=O)O)C(=O)N1)C(=O)O (X1-DFTA[R5]DLE[R5]WFAL-OH; staple (Z) 5-9)	570
CC(C)C[C@H](NC(=O)[C@H](C)NC(=O)[C@H](Cc1ccc(Cl)c(Cl)c1)NC(=O)[C@H](Cc1c[nH]c2ccccc12)NC(=O)[C@@]1(C)CCC/C=C\CCC[C@@](C)(NC(=O)[C@H](C)NC(=O)[C@@H](NC(=O)[C@H](Cc2ccccc2)NC(=O)[C@H](CC(N)=O)NC(=S)Nc2ccc(-c3c4ccc(=O)cc-4oc4cc(O)ccc34)c(C(=O)O)c2)[C@@H](C)O)C(=O)N[C@@H](CC(=O)O)C(=O)N[C@@H](CC(C)C)C(=O)N[C@@H](CCC(=O)O)C(=O)N1)C(=O)O (X1-NFTA[R5]DLE[R5]W[Phe(3,4-Cl2)]AL-OH; staple (Z) 5-9)	48
CC(C)C[C@H](NC(=O)[C@H](CC(=O)O)NC(=O)[C@H](CC(=O)O)NC(=O)[C@H](C)NC(=O)[C@@H](NC(=O)[C@H](Cc1ccccc1)NC(=O)[C@H](CC(=O)O)NC(=S)Nc1ccc(-c2c3ccc(=O)cc-3oc3cc(O)ccc23)c(C(=O)O)c1)[C@@H](C)O)C(=O)N[C@@H](CCC(=O)O)C(=O)N[C@@H](CCC(=O)O)C(=O)N[C@@H](CC(C)C)C(=O)N[C@@H](CC(=O)O)C(=O)N[C@H](C(=O)N[C@@H](CC(C)C)C(=O)N[C@@H](C)C(=O)N[C@@H](CO)C(N)=O)[C@@H](C)O (X1-DFTADDLEELDTLAS-NH2)	6400
CC(C)C[C@H](NC(=O)[C@H](C)NC(=O)[C@H](Cc1ccccc1)NC(=O)[C@H](Cc1c[nH]c2ccccc12)NC(=O)[C@@]1(C)CCC/C=C\CCC[C@@](C)(NC(=O)[C@H](C)NC(=O)[C@@H](NC(=O)[C@H](Cc2ccccc2)NC(=O)[C@H](CC(=O)O)NC(=S)Nc2ccc(-c3c4ccc(=O)cc-4oc4cc(O)ccc34)c(C(=O)O)c2)[C@@H](C)O)C(=O)N[C@@H](CC(N)=O)C(=O)N[C@@H](CC(C)C)C(=O)N[C@@H](CCC(=O)O)C(=O)N1)C(=O)O (X1-DFTA[R5]NLE[R5]WFAL-OH; staple (Z) 5-9)	3700
CC(C)C[C@H](NC(=O)[C@H](C)NC(=O)[C@H](Cc1ccccc1)NC(=O)[C@H](Cc1c[nH]c2ccccc12)NC(=O)[C@@]1(C)CCC/C=C\CCC[C@@](C)(NC(=O)[C@H](C)NC(=O)[C@@H](NC(=O)[C@H](Cc2ccccc2)NC(=O)[C@H](CC(N)=O)NC(=S)Nc2ccc(-c3c4ccc(=O)cc-4oc4cc(O)ccc34)c(C(=O)O)c2)[C@@H](C)O)C(=O)N[C@@H](CC(N)=O)C(=O)N[C@@H](CC(C)C)C(=O)N[C@@H](CCC(=O)O)C(=O)N1)C(=O)O (X1-NFTA[R5]NLE[R5]WFAL-OH; staple (Z) 5-9)	7400
CC(C)C[C@H](NC(=O)[C@H](CC(=O)O)NC(=O)[C@H](CC(=O)O)NC(=O)[C@H](C)NC(=O)[C@@H](NC(=O)[C@H](Cc1ccccc1)NC(=O)[C@H](CC(=O)O)NC(=S)Nc1ccc(-c2c3ccc(=O)cc-3oc3cc(O)ccc23)c(C(=O)O)c1)[C@@H](C)O)C(=O)N[C@@H](CCC(=O)O)C(=O)N[C@@H](CCC(=O)O)C(=O)N[C@@H](Cc1c[nH]c2ccccc12)C(=O)N[C@@H](Cc1ccccc1)C(=O)N[C@@H](C)C(N)=O (X1-DFTADDLEEWFA-NH2)	910
